- Test system: 521955-158-R2-J5-PDC complex spheroid viability;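 also: spheroids exposed to agents for one week before reading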
- procedure-text: Anticancer human tumor 521955-158-R2-J5-PDC patient-derived pancreatic carcinoma cell line growth inhibition [GQUAD]; active = viability on the fitted dose curve at most 10% of control; inactive = the rest
- setup-conditions: second compound 3.16 µM; first compound 0.00999 µM
Possible outcomes: active, inactive

[[record]]
molecule = "Cc1[nH]c2ccccc2c1CCNCc1ccc(/C=C/C(=O)NO)cc1 + CN(C)c1ccc(Nc2c3ccc(NC(=O)CCN4CCCC4)cc3nc3cc(NC(=O)CCN4CCCC4)ccc23)cc1"
assayed_system = "521955-158-R2-J5-PDC complex spheroid viability"
class = "inactive"

[[record]]
molecule = "CC[C@@]1(O)C(=O)OCc2c1cc1n(c2=O)Cc2cc3c(CN(C)C)c(O)ccc3nc2-1 + Cc1[nH]c2ccc(F)cc2c1-c1nc2c3cccnc3c3ncccc3c2[nH]1"
assayed_system = "521955-158-R2-J5-PDC complex spheroid viability"
class = "inactive"

[[record]]
molecule = "CCc1c2c(nc3ccc(O)cc13)-c1cc3c(c(=O)n1C2)COC(=O)[C@]3(O)CC + Cc1cnc(CNC(=O)c2c(=O)c3ccc(N4CCCN(C)CC4)nc3n3c2sc2ccccc23)cn1"
assayed_system = "521955-158-R2-J5-PDC complex spheroid viability"
class = "active"

[[record]]
molecule = "CC[C@@]1(O)C(=O)OCc2c1cc1n(c2=O)Cc2cc3c(CN(C)C)c(O)ccc3nc2-1 + Cc1cnc(CNC(=O)c2c(=O)c3ccc(N4CCCN(C)CC4)nc3n3c2sc2ccccc23)cn1"
assayed_system = "521955-158-R2-J5-PDC complex spheroid viability"
class = "inactive"

[[record]]
molecule = "CC[C@@]1(O)C(=O)OCc2c1cc1n(c2=O)Cc2cc3c(CN(C)C)c(O)ccc3nc2-1 + CN(C)c1ccc(Nc2c3ccc(NC(=O)CCN4CCCC4)cc3nc3cc(NC(=O)CCN4CCCC4)ccc23)cc1"
assayed_system = "521955-158-R2-J5-PDC complex spheroid viability"
class = "inactive"

[[record]]
molecule = "Cn1ncnc1[C@H]1c2n[nH]c(=O)c3cc(F)cc(c23)N[C@@H]1c1ccc(F)cc1 + Cc1[nH]c2ccc(F)cc2c1-c1nc2c3cccnc3c3ncccc3c2[nH]1"
assayed_system = "521955-158-R2-J5-PDC complex spheroid viability"
class = "inactive"

[[record]]
molecule = "CCc1c2c(nc3ccc(O)cc13)-c1cc3c(c(=O)n1C2)COC(=O)[C@]3(O)CC + Cc1[nH]c2ccc(F)cc2c1-c1nc2c3cccnc3c3ncccc3c2[nH]1"
assayed_system = "521955-158-R2-J5-PDC complex spheroid viability"
class = "active"

[[record]]
molecule = "CCc1c2c(nc3ccc(O)cc13)-c1cc3c(c(=O)n1C2)COC(=O)[C@]3(O)CC + CN(C)c1ccc(Nc2c3ccc(NC(=O)CCN4CCCC4)cc3nc3cc(NC(=O)CCN4CCCC4)ccc23)cc1"
assayed_system = "521955-158-R2-J5-PDC complex spheroid viability"
class = "inactive"

[[record]]
molecule = "Cn1ncnc1[C@H]1c2n[nH]c(=O)c3cc(F)cc(c23)N[C@@H]1c1ccc(F)cc1 + CN(C)c1ccc(Nc2c3ccc(NC(=O)CCN4CCCC4)cc3nc3cc(NC(=O)CCN4CCCC4)ccc23)cc1"
assayed_system = "521955-158-R2-J5-PDC complex spheroid viability"
class = "inactive"

